tested on: NCI-H1944; assay: normalised cell viability (NPI; 0 = phenylarsine oxide control, 1 = DMSO control) (fraction of DMSO control); NCI-H1944 is a non-small cell lung cancer line; higher = more viable cells (less compound toxicity); conditions: glucocorticoid arm: vehicle; compound 1 µM; 6 days;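 also: CTB read-out in 384-well plates, triplicate wells, NPI normalised per plate against 1 µM phenylarsine oxide (0) and 0.1% DMSO (1) controls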
Where a name gives a salt, the structure may show the parent alone. The full ranking holds about 1,900 compounds; the median of “normalised cell viability (NPI; 0 = phenylarsine oxide control, 1 = DMSO control)” is about 1, and the lowest 2% start at about 0.039. Many of the other results were omitted from the sample, so the lowest values are more common in it than they were.
Measured normalised cell viability values are reported for all entries that follow.
In your answer, state the number alone without any accompanying words.

Example entries and their recorded answers appear below.
{"columns": ["COMPOUND", "normalised cell viability"],
 "data": [
  ["C=C1C(=O)O[C@@H](CCC)[C@@H]1C(=O)O", 0.996],
  ["CC(C)[C@H](NC(=O)OCc1ccccc1)C(=O)N[C@H](C=O)Cc1ccccc1", 1],
  ["COC(=O)C[C@](O)(CCCC(C)(C)O)C(=O)O[C@@H]1C(OC)=C[C@]23CCCN2CCc2cc4c(cc2[C@H]13)OCO4 [Omacetaxine mepesuccinate]", 0.00151],
  ["COCC(=O)O[C@]1(CCN(C)CCCc2nc3ccccc3[nH]2)CCc2cc(F)ccc2[C@@H]1C(C)C [Mibefradil dihydrochloride]", 0.989],
  ["O=C(O)C1CCCNC1 (racemic) [(±)-Nipecotic acid]", 1]
]}

[Q] Retrieve normalised cell viability measured for CCOc1ccc(Cc2cc([C@@H]3O[C@H](CO)[C@@H](O)[C@H](O)[C@H]3O)ccc2Cl)cc1 and print it.
[A] 1

[Q] Retrieve normalised cell viability measured for CN(C)CCC(c1ccc(Cl)cc1)c1ccccn1 (single isomer, unassigned; (+)) [(+)-Chlorpheniramine maleate] and print it.
[A] 0.968

[Q] Retrieve normalised cell viability measured for O=C(CCCCCCNC(=O)c1cnc(N(c2ccccc2)c2ccccc2)nc1)NO [Rocilinostat (ACY-1215)] and print it.
[A] 0.992

[Q] Retrieve normalised cell viability measured for O=C(CCCCCCC(=O)NO)NO [Suberoyl bis-hydroxamic acid] and print it.
[A] 1
